- EXPERIMENT: Caspase-3/7 induction in CHO-K1 cells by small molecules, qHTS cell viability counter screen (AID 1346979); further: nearly all actives have a fitted effect of over 35% in size
- REPORTED_CONDITIONS: CellTiter-Fluor fluorescence, 17 h; series mostly up to 92.4 µM
Inconclusive results are not listed. The source made the active and inactive calls. The call rests on the fitted dose curve; in most records, active means well fitted cell-killing curve with a large enough effect in the repeat runs; inconclusive means weak or mixed curves, or effect the other way; inactive means no such curve, though single readings can be large or run the other way.
Please state which outcome applies, choosing from active, inactive

Ask: Per the records of this test, what outcome belongs to C[C@H]1CNCCc2ccc(Cl)cc21 ?
Result: inactive

Ask: Per the records of this test, what outcome belongs to N#Cc1ccc(Cl)cc1 ?
Result: inactive

Ask: Per the records of this test, what outcome belongs to ClCc1ccccc1 ?
Result: inactive

Ask: Per the records of this test, what outcome belongs to O=[N+]([O-])c1cc(C(F)(F)F)cc([N+](=O)[O-])c1Cl ?
Result: active

Ask: Per the records of this test, what outcome belongs to Clc1cc(C(Cl)(Cl)Cl)cnc1Cl ?
Result: active

Ask: Per the records of this test, what outcome belongs to [O-][Cl+]O ?
Result: inactive

Ask: Per the records of this test, what outcome belongs to O=[N+]([O-])c1ccccc1CCl ?
Result: inactive

Ask: Per the records of this test, what outcome belongs to O=C(O)C(F)(F)C(F)(F)C(F)(F)C(F)(F)C(F)(F)C(F)(F)C(F)(F)C(F)(F)C(F)(F)F ?
Result: inactive

Ask: Per the records of this test, what outcome belongs to CN1C(=O)NC(=O)C(C)(C2=CCCCC2)C1=O (configuration not stated) ?
Result: inactive

Ask: Per the records of this test, what outcome belongs to Clc1cccc2ccccc12 ?
Result: inactive

Ask: Per the records of this test, what outcome belongs to OC(c1ccc(Cl)cc1)(c1ccc(Cl)cc1)c1cccnc1 ?
Result: active

Ask: Per the records of this test, what outcome belongs to O=C(CBr)Nc1ccc(Cl)cc1C(=O)c1ccccc1F ?
Result: inactive

Ask: Per the records of this test, what outcome belongs to CC(=O)C(C)(C)C ?
Result: inactive

Ask: Per the records of this test, what outcome belongs to O=C(O)c1ccccc1C(=O)Nc1cccc2ccccc12 ?
Result: inactive

Ask: Per the records of this test, what outcome belongs to CC(C)N(C(=O)COc1nnc(C(F)(F)F)s1)c1ccc(F)cc1 ?
Result: inactive

Ask: Per the records of this test, what outcome belongs to CCOC(=O)C(Cl)C(C)=O (configuration not stated) ?
Result: inactive

Ask: Per the records of this test, what outcome belongs to OCCCBr ?
Result: inactive

Ask: Per the records of this test, what outcome belongs to CC(C)N(CCC(C(N)=O)(c1ccccc1)c1ccccn1)C(C)C (configuration not stated) ?
Result: inactive

Ask: Per the records of this test, what outcome belongs to ClCCCCBr ?
Result: inactive

Ask: Per the records of this test, what outcome belongs to O=S(=O)(Cl)c1ccccc1 ?
Result: inactive

Ask: Per the records of this test, what outcome belongs to O=C(N[C@H](c1ccccc1)[C@@H]1CN2CCC1CC2)c1c(Cl)ccc(C(F)(F)F)c1Cl ?
Result: active

Ask: Per the records of this test, what outcome belongs to CC1(C)CCC(Cc2ccc(Cl)cc2)C1(O)Cn1cncn1 (configuration not stated) ?
Result: active

---

- EXPERIMENT: qHTS assay to identify small molecule antagonists of the vitamin D receptor (VDR) signaling pathway - cell viability counter screen (AID 743225); further: nearly all actives have a fitted effect of over 50% in size
- REPORTED_CONDITIONS: VDR-bla HEK293T viability, CellTiter-Glo luminescence, 16 h; series mostly up to 61 µM
- Source text: U.S. Tox21 Program National Center for Advancing Translational Sciences [NCATS] NIH Chemical Genomics Center [NCGC] U.S. Environmental Protection Agency [EPA] National Institutes of Environmental Health Sciences [NIEHS] National Toxicology Program [NTP] U.S. Food and Drug Administration [FDA] Tox21 Assay Overview: The vitamin D receptor (VDR), a member of nuclear hormone receptor superfamily, plays a critical role in calcium homeostasis and bone metabolism. […]
Inconclusive results are not listed. Active and inactive are the calls of the source. Calls follow the shape of the dose curve; as a rule, active = well fitted cell-killing curve with a large enough effect in the repeat runs; inconclusive = weak or mixed curves, or effect the other way; inactive = no such curve, though single readings can be large or run the other way.
Please state which outcome applies, choosing from Y (active), N (inactive)

Ask: Per the records of this test, what outcome belongs to COc1cc(Cl)c(OC)cc1Cl ?
Result: N

Ask: Per the records of this test, what outcome belongs to CC(=O)NC1CCSC1=O (stereo not given) ?
Result: N

Ask: Per the records of this test, what outcome belongs to CCOP(=S)(OCC)Oc1nc(Cl)c(Cl)cc1Cl ?
Result: N

Ask: Per the records of this test, what outcome belongs to CC(C)N(CCC(C(N)=O)(c1ccccc1)c1ccccn1)C(C)C (stereo not given) ?
Result: N

Ask: Per the records of this test, what outcome belongs to O=C(OC1CCCCC1)c1ccccc1C(=O)OC1CCCCC1 ?
Result: Y

---

- EXPERIMENT: qHTS RealTime-Glo MT Cell Viability Assay in HEK293 cells - 24 hour (AID 1224886); further: nearly all actives have a fitted effect of over 50% in size
- REPORTED_CONDITIONS: RealTime-Glo luminescence; series mostly up to 76.8 µM
Records with an inconclusive call do not appear. The source made the active and inactive calls. The call rests on the fitted dose curve; in most records, active means well fitted cell-killing curve with a large enough effect in the repeat runs; inconclusive means weak or mixed curves, or effect the other way; inactive means flat fitted curve, though single readings scatter.
Please state which outcome applies, choosing from class 1 (active), class 0 (inactive)

Ask: Per the records of this test, what outcome belongs to CC1Sc2c(C(=O)O)c(=O)c3cc(F)c(N4CCNCC4)cc3n21 (centres undefined) ?
Result: class 0

Ask: Per the records of this test, what outcome belongs to O=C(N[C@H](c1ccccc1)[C@@H]1CN2CCC1CC2)c1c(Cl)ccc(C(F)(F)F)c1Cl ?
Result: class 1

Ask: Per the records of this test, what outcome belongs to CCCCCCC#N ?
Result: class 0

Ask: Per the records of this test, what outcome belongs to O=C=Nc1ccc(Cl)cc1 ?
Result: class 0

Ask: Per the records of this test, what outcome belongs to CCCN(CCC)c1c([N+](=O)[O-])cc(S(C)(=O)=O)cc1[N+](=O)[O-] ?
Result: class 1

Ask: Per the records of this test, what outcome belongs to O=Cc1ccc2c(c1)OCO2 ?
Result: class 0

Ask: Per the records of this test, what outcome belongs to CCCCc1c(C)nc(NCC)nc1OS(=O)(=O)N(C)C ?
Result: class 1

Ask: Per the records of this test, what outcome belongs to CCC(Cl)CCl (centres undefined) ?
Result: class 0

Ask: Per the records of this test, what outcome belongs to CCOP(=O)(OCC)Oc1ccc([N+](=O)[O-])cc1 ?
Result: class 0

Ask: Per the records of this test, what outcome belongs to CCOS(C)(=O)=O ?
Result: class 0

Ask: Per the records of this test, what outcome belongs to CC/C(=N\OC/C=C/Cl)C1=C(O)CC(C2CCOCC2)CC1=O (centres undefined) ?
Result: class 0

Ask: Per the records of this test, what outcome belongs to C=CCN1CC[C@]23c4c5ccc(O)c4O[C@H]2C(=O)CC[C@@]3(O)[C@H]1C5 ?
Result: class 0

Ask: Per the records of this test, what outcome belongs to ClC=C(Cl)Cl ?
Result: class 0

Ask: Per the records of this test, what outcome belongs to COc1nn(C(=O)NS(=O)(=O)c2ccccc2OC(F)(F)F)c(=O)n1C ?
Result: class 0

Ask: Per the records of this test, what outcome belongs to Cl/C=C\Cl ?
Result: class 0

Ask: Per the records of this test, what outcome belongs to C=CC(=O)OC(C)(C)C ?
Result: class 0

Ask: Per the records of this test, what outcome belongs to Cc1ccccc1CCl ?
Result: class 0

Ask: Per the records of this test, what outcome belongs to CCOP(O)OCC ?
Result: class 0

Ask: Per the records of this test, what outcome belongs to O=C(CBr)Nc1ccc(Cl)cc1C(=O)c1ccccc1F ?
Result: class 0

Ask: Per the records of this test, what outcome belongs to CCCCN=C=O ?
Result: class 0

Ask: Per the records of this test, what outcome belongs to c1cc2ccc3cccc4ccc(c1)c2c34 ?
Result: class 0

Ask: Per the records of this test, what outcome belongs to COc1nn(CSP(=S)(OC)OC)c(=O)s1 ?
Result: class 0

Ask: Per the records of this test, what outcome belongs to Clc1cc(Cl)c(Cl)c(Cl)c1 ?
Result: class 0

Ask: Per the records of this test, what outcome belongs to O=[Se]=O ?
Result: class 1

Ask: Per the records of this test, what outcome belongs to CCOP(=S)(OCC)SCSCC ?
Result: class 0

Ask: Per the records of this test, what outcome belongs to CCCN(CCCl)c1c([N+](=O)[O-])cc(C(F)(F)F)cc1[N+](=O)[O-] ?
Result: class 0

Ask: Per the records of this test, what outcome belongs to O=C(O)C(F)(F)C(F)(F)C(F)(F)C(F)(F)C(F)(F)C(F)(F)C(F)(F)C(F)(F)C(F)(F)C(F)(F)F ?
Result: class 0

Ask: Per the records of this test, what outcome belongs to COc1ccc(-c2ccccc2)cc1NNC(=O)OC(C)C ?
Result: class 1

Ask: Per the records of this test, what outcome belongs to CCOP(=S)(OCC)SCn1nnc2ccccc2c1=O ?
Result: class 1

Ask: Per the records of this test, what outcome belongs to C[N+](C)(C)CCCl ?
Result: class 0

Ask: Per the records of this test, what outcome belongs to CN1C[C@H](CNC(=O)OCc2ccccc2)C[C@@H]2c3cccc4c3c(cn4C)C[C@H]21 ?
Result: class 1

Ask: Per the records of this test, what outcome belongs to NNC(=O)c1cccnc1 ?
Result: class 0

Ask: Per the records of this test, what outcome belongs to Nc1ccc(N=Nc2ccc(-c3ccc(N=Nc4c(S(=O)(=O)O)cc5cc(S(=O)(=O)O)c(N=Nc6ccccc6)c(O)c5c4N)cc3)cc2)c(N)c1 ?
Result: class 0

Ask: Per the records of this test, what outcome belongs to NS(=O)(=O)C(F)(F)C(F)(F)C(F)(F)C(F)(F)C(F)(F)C(F)(F)C(F)(F)C(F)(F)F ?
Result: class 0
